As shown below, each of these compounds has a reported Potency value.
- assay.procedure: qHTS Assay for Modulators of miRNAs and/or Inhibitors of miR-21; also: potency is read from the fitted curve at half-maximal effect; nearly all actives have a fitted effect of over 55% in size
- experimental.conditions: HeLa miR-21-FLuc reporter, luciferase luminescence, 48 h; actives lower the signal
In all, about 340,000 compounds went through this assay and about 3,300 (0.97%) were called active. Inconclusive results (about 9%) are left out. The list shows a part of the results.

compound	Potency
COc1ccc(NC(=O)c2ccco2)c([N+](=O)[O-])c1	7.36 µM (active)
COc1ccc(COc2ccc3c(C)cc(=O)oc3c2)cc1	2.33 µM (active)
Cc1cc(-c2ccc(N3CCOCC3)cc2)nc2ccccc12	3.29 µM (active)
CCN(CC)C(=O)c1cc2sc3ccccc3c2s1	3.29 µM (active)
COc1ccc(/C(C)=N/Nc2ccccc2Cl)c(O)c1	8.26 µM (active)
Nc1c(Br)cc2oc(-c3ccccc3)nc2c1Br	2.07 µM (active)
CCn1c(C)cc(C=C2C(=O)c3ccccc3C2=O)c1C	13.1 µM (active)
Cc1cnc(C(=O)Nc2ccc(C(C)C)cc2)cn1	1.65 µM (active)
COc1cccc(COc2ccc3c(C)cc(=O)oc3c2)c1	2.07 µM (active)
Cc1cc(C=C2C(=O)c3ccccc3C2=O)c(C)n1C	18.5 µM (active)
COc1ccc(NC(=O)CSc2ccccc2)c([N+](=O)[O-])c1	7.36 µM (active)
Cc1cc(/C=C(\C#N)C(=O)Nc2ccccc2F)c(C)[nH]1	0.521 µM (active)
CN(C)CCNC(=O)c1cc2c(s1)-c1ccccc1OC2	13.1 µM (active)
O=C(NC1=NCCS1)c1ccc(C(F)(F)F)cc1	6.56 µM (active)
Cc1ccc(Oc2ncnc3sccc23)cc1	14.7 µM (active)
CN1N=C(C(=O)N2CCc3c([nH]c4ccccc34)C2c2ccccc2Cl)CCC1=O (centres undefined)	10.4 µM (active)
Cc1nn(Cc2c(F)c(F)c(F)c(F)c2F)c(C)c1NC(=O)c1cccc(COc2ccc(Cl)cc2)c1	7.36 µM (active)
Cc1ccc2nc(-c3ccc(SCC(=O)Nc4nc(C)cs4)nc3)[nH]c2c1	1.47 µM (active)
Cc1nc2ccc(NC(=O)COc3ccccc3F)cc2s1	7.36 µM (active)
Cc1ccc2nc(-c3ccc(NC(=O)COc4ccccc4C(C)(C)C)cc3)sc2c1	6.56 µM (active)
N#Cc1ccccc1CSc1nc2ccsc2c(=O)n1Cc1ccccn1	16.5 µM (active)
CCC(=O)Nc1ccc2c(c1)ncn2-c1ccccc1	7.36 µM (active)
O=C(Nc1ccc2c(c1)ncn2-c1ccccc1)c1ccco1	2.33 µM (active)
CCSc1nnc(NC(=O)c2ccccc2)s1	1.31 µM (active)
